Items are presented alongside their recorded Brain Permeability of [^18F]-labeled Compound: Brain.
Method summary: Brain permeability of [^18F]-labeled compound in mice
Type: in vivo, male ICR mice
Study conditions: 2 minutes after intravenous administration, radioactivity

In the examples that follow, each entry is paired with its recorded Brain Permeability of [^18F]-labeled Compound: Brain.
OCC(CF)COc1ccc2nc(/C=C/c3cnc(N4CCOCC4)s3)oc2c1 (stereo not shown) [[^18F]THK-727] | 4.1 % ID/g or ml
FCCOc1ccc2nc(/C=C/c3cnc(N4CCOCC4)s3)oc2c1 [[^18F]THK-525] | 4.7 % ID/g or ml
OCC(CF)Oc1ccc2nc(/C=C/c3cnc(N4CCOCC4)s3)oc2c1 (stereo not shown) [[^18F]THK-702] | 4.2 % ID/g or ml

Attention now shifts to the item below.
Q. Suppose we examine the compound CN(C)c1ncc(/C=C/c2nc3ccc(OC(CO)CF)cc3o2)s1 (stereo not shown) [[^18F]THK-763] ; what Brain Permeability of [^18F]-labeled Compound: Brain value has been reported?
A. 4.6 % ID/g or ml

====

Method summary: Acute toxicity test, intravenous administration to mice
Type: in vivo
Study conditions: mice observed for 7 days
Description: The compounds of the invention were tested for their acute toxicity through intravenous administration thereof to mice. Four Crj:CD1 male mice formed one test group, and some test groups of those mice were used (the mean body weight of the mice of each group was from 31 to 32 g). A test compound was dissolved in a mixture of 1 N HCl, polyethylene glycol-400 and distilled water, or dissolved in DMSO, and then diluted with distilled water. This was administered to each mouse via its tail vein.
Measured endpoint: Maximum Permissible Dose

// worked examples, Maximum Permissible Dose included
OCC(CF)Oc1ccc2nc(/C=C/c3cnc(N4CCCC4)s3)oc2c1 (centres unmarked) | ≧10 mg/kg
CNc1ncc(/C=C/c2nc3ccc(OC(CO)CF)cc3o2)s1 (centres unmarked) | ≧10 mg/kg
FCCOc1ccc2nc(/C=C/c3cnc(N4CCOCC4)s3)oc2c1 | ≧10 mg/kg
OCC(CF)Oc1ccc2nc(/C=C/c3cnc(N4CCCCCC4)s3)oc2c1 (centres unmarked) | ≧10 mg/kg
OCC(CF)Oc1ccc2nc(/C=C/c3cnc(N4CCCCC4)s3)oc2c1 (centres unmarked) | ≧10 mg/kg
CN(C)c1ncc(/C=C/c2nc3ccc(OC(CO)CF)cc3o2)s1 (centres unmarked) | ≧10 mg/kg
OCC(CF)Oc1ccc2nc(/C=C/c3cnc(N4CCOCC4)s3)oc2c1 (centres unmarked) | ≧10 mg/kg
CN1CCN(c2ncc(/C=C/c3nc4ccc(OC(CO)CF)cc4o3)s2)CC1 (centres unmarked) | ≧10 mg/kg

Q. May I ask what Maximum Permissible Dose has been recorded for OCC(CF)COc1ccc2nc(/C=C/c3cnc(N4CCOCC4)s3)oc2c1 (centres unmarked) ?
A. ≧10 mg/kg

Q. Repeat with OCC(CF)Oc1ccc2nc(/C=C/c3cnc(N4CCCOCC4)s3)oc2c1 (centres unmarked)
A. ≧10 mg/kg

Q. Again, but for OCC(CF)Oc1ccc2nc(/C=C/c3cnc(N4CCCOC4)s3)oc2c1 (centres unmarked)
A. ≧10 mg/kg

====

Method summary: Brain permeability of [^18F]-labeled compound in mice
Assay type: in vivo, male ICR mice
Study conditions: 2 minutes after intravenous administration, radioactivity
Measured endpoint: Brain Permeability of [^18F]-labeled Compound: Plasma

Q. Quick one: Brain Permeability of [^18F]-labeled Compound: Plasma of FCCOc1ccc2nc(/C=C/c3cnc(N4CCOCC4)s3)oc2c1 [[^18F]THK-525] ?
A. 2.8 % ID/g or ml

Q. Could you do the same for OCC(CF)COc1ccc2nc(/C=C/c3cnc(N4CCOCC4)s3)oc2c1 (stereo not shown) [[^18F]THK-727] , please?
A. 2.9 % ID/g or ml

Q. Now consider OCC(CF)Oc1ccc2nc(/C=C/c3cnc(N4CCOCC4)s3)oc2c1 (stereo not shown) [[^18F]THK-702] and answer again.
A. 2.3 % ID/g or ml

Q. Now give it for CN(C)c1ncc(/C=C/c2nc3ccc(OC(CO)CF)cc3o2)s1 (stereo not shown) [[^18F]THK-763] too.
A. 3.7 % ID/g or ml

Source: patent US20110190492A1
